These measurements were taken from ChEMBL document CHEMBL1961873.

target: Insulin receptor-related protein (Homo sapiens); settings: at 0.1 µM;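 note: mean percent inhibition of IRR, reported within the GSK PKIS screening panel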
propertyName: inhibition (%)
Write the answer as a number in %, unit excluded.

CCN1CCC(CC(=O)Nc2n[nH]c3nnc(-c4cccc(F)c4F)cc23)CC1	1.41

GET /value?item= `CNC(=O)c1cc(-c2ccc(F)cc2)cc(-c2ccc(S(=O)(=O)N3CCCC3)cc2)c1N` &field=inhibition returns -0.17

GET /value?item= `CNC(=O)c1cccc(C#Cc2cncnc2Nc2ccc(OCc3cccc(F)c3)c(Cl)c2)c1` &field=inhibition returns 0.75

GET /value?item= CC1=C(C(=O)Nc2cc(Cl)c3[nH]ncc3c2)C(c2ccc(C(F)(F)F)cc2)CC(=O)N1 (centres undefined) &field=inhibition returns 0.76

GET /value?item= `[O-][S+]1CCN(Cc2ccc(-c3ccc4ncnc(Nc5ccc(OCc6cccc(F)c6)c(Cl)c5)c4c3)o2)CC1` &field=inhibition returns 2.99

GET /value?item= `COc1cc2c(cc1Nc1nc(Nc3ccsc3C(N)=O)c3cc[nH]c3n1)N(C(=O)CN(C)C)CCC2(C)C` &field=inhibition returns 98

GET /value?item= `c1cc(-c2cnn3nc(N4CCOCC4)ccc23)nc(NC2CC2)n1` &field=inhibition returns 2.65

GET /value?item= `CC(=O)Nc1cccc(C#Cc2cncnc2Nc2ccc(OCc3cccc(F)c3)c(Cl)c2)c1` &field=inhibition returns 2.25

GET /value?item= `Fc1ccc(-c2nn3ncccc3c2-c2ccnc(Nc3ccc4c(c3)OCCO4)n2)cc1` &field=inhibition returns 2.61

---

molecular target: Serine/threonine-protein kinase SIK1 (Homo sapiens) (UniProt P57059); details: at 1 µM;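 note: mean inhibition value from the GSK PKIS profiling set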
Sequence (P57059 whole entry): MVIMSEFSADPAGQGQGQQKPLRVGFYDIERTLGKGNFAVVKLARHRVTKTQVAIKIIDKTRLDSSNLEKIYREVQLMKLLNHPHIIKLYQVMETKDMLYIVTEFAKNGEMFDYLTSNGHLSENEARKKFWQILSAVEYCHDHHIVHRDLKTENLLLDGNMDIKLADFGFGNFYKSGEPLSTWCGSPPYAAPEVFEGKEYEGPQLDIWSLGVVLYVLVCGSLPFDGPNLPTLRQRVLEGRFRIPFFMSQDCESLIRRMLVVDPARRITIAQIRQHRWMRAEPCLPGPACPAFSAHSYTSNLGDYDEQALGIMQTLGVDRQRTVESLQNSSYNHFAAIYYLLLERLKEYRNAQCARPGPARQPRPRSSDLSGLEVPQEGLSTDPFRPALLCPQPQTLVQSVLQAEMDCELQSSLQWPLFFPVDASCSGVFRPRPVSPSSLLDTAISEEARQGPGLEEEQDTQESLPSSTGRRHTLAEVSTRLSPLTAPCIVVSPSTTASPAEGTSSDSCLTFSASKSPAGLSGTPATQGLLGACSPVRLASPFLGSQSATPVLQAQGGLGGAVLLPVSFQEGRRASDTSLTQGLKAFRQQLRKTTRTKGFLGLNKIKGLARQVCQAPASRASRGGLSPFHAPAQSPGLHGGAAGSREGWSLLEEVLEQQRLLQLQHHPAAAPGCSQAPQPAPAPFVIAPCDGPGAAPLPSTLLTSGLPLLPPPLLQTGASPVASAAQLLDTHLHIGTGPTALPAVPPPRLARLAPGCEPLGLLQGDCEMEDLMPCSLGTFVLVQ
Use inhibition to assign classes; range list: lower: < 4%; middle: ≥ 4% and < 10%; upper: ≥ 10%

Reference set, count: 3
COc1ccc(-c2nn3ncccc3c2-c2ccnc(Nc3ccc4c(c3)OCCO4)n2)cc1	upper
Cc1cccc(Nc2ncc(-c3ccccc3)o2)c1	upper
CN(C)CCOc1ccc(-c2nc(-c3ccncc3)c(-c3ccc4c(c3)CC/C4=N\O)[nH]2)cc1	lower

Q: Lab note: which band did `Fc1ccc(-c2nn3ncccc3c2-c2ccnc(Nc3ccc4c(c3)OCCO4)n2)cc1` land in?
Result: upper

Q: Lab note: which band did `O=C(Nc1n[nH]c2cc(-c3ccc(F)cc3)ccc12)C1CC1` land in?
Result: middle

Q: Lab note: which band did `CCOc1ccc2c(-c3ccnc(Nc4cccc(C(F)(F)F)c4)n3)cnn2n1` land in?
Result: lower

Q: Lab note: which band did `Nc1nc(-c2ccc(F)cc2)c(-c2ccc3ncccc3n2)s1` land in?
Result: middle

Q: Lab note: which band did `Fc1ccc(-c2nn3ccccc3c2-c2ccncc2)cc1` land in?
Result: middle

Q: Lab note: which band did `COc1cc(/C=N/Nc2ncnc3[nH]ncc23)ccc1O` land in?
Result: upper

Q: Lab note: which band did `CCn1c(-c2nonc2N)nc2cnc(Oc3cccc(NC(=O)c4ccc(N(C)C)cc4)c3)cc21` land in?
Result: lower

---

target: Receptor-type tyrosine-protein kinase FLT3 (Homo sapiens); settings: at 0.1 µM;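 note: mean inhibition value from the GSK PKIS kinase screening set, with the assay run by Nanosyn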
The following molecules are shown together with reported inhibition values.

CCn1c(-c2nonc2N)nc2c(C#CC(C)(C)O)ncc(OC3CCNCC3)c21	3.32%
Clc1ccc(-c2nn3ncccc3c2-c2ccnc(Nc3ccccc3)n2)cc1	0.8%
Cc1ccc(O)cc1Nc1ccnc2cc(-c3ccccn3)ccc12	3.74%
NC(=O)c1sc(-n2cnc3ccc(C(F)(F)F)cc32)cc1OCc1ccccc1Br	1.91%
COc1ccc(-c2cc(-c3c[nH]nc3-c3ccccn3)ccn2)cc1	3.81%

We now examine a further molecule.
GET /value?item= `Fc1ccc(-c2cc(-c3c[nH]nc3-c3ccccn3)ccn2)cc1` &field=inhibition returns 2.44%

---

target: Mast/stem cell growth factor receptor Kit (Homo sapiens); settings: at 0.1 µM;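 note: values are mean inhibition of KIT, from the GSK PKIS dataset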
Entry flag: label 1 if inhibition reaches 4%; label 0 if it does not.

Reference set, count: 9
c1cc(-c2cnn3nc(N4CCOCC4)ccc23)nc(NC2CC2)n1	label 1
CCN1CCC(CC(=O)Nc2n[nH]c3nnc(-c4cccc(F)c4F)cc23)CC1	label 0
CCCN1CCC(c2ccc(Nc3nc(Nc4cc(F)ccc4C(N)=O)c4cc[nH]c4n3)c(OC)c2)CC1	label 1
COc1ccc2c(-c3ccnc(Nc4cccc(OC(F)(F)F)c4)n3)cnn2n1	label 1
CCn1c(-c2nonc2N)nc2ccccc21	label 0
c1ccc(COc2ccc(Nc3ncnc4ccc(-c5ccco5)cc34)cc2)cc1	label 0
c1ccc(-c2nc3n(c2-c2ccc4c(c2)OCO4)CCC3)nc1	label 0
CC1=C(C(=O)Nc2cc(Cl)c3[nH]ncc3c2)C(c2ccc(C(F)(F)F)cc2)CC(=O)N1 (stereo not given)	label 1
CNC(=O)c1cc(-c2ccc(F)cc2)cc(-c2ccc(S(=O)(=O)N3CCCC3)cc2)c1N	label 0

Q: Check if inhibition >= 4% (inclusive). Item: `COc1cc(Nc2nccc(Nc3ccc4c(C)n[nH]c4c3)n2)cc(OC)c1OC`
Result: label 1

---

target: Tyrosine-protein kinase FRK (Homo sapiens); details: at 0.1 µM;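 note: values are mean inhibition of PTK5 (FRK) kinase activity from the GSK PKIS screening set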
The following compounds are shown together with reported inhibition values.
Write the answer as a number in %, unit excluded.

CNC(=O)c1cccc(C#Cc2cncnc2Nc2ccc(OCc3cccc(F)c3)c(Cl)c2)c1	-0.32
Fc1cccc(COc2ccc(Nc3ncnc4sc(-c5ccco5)cc34)cc2Cl)c1	4.23
Nc1nc(-c2ccc(F)cc2)c(-c2ccc3ncccc3n2)s1	2.59
COC(=O)Nc1nc2ccc(Oc3ccc(NC(=O)Nc4cccc(Cl)c4)cc3)cc2[nH]1	0.45
NC(=O)c1sc(-n2cnc3ccc(C(F)(F)F)cc32)cc1OCc1ccccc1Br	2.51
COc1cccc(-c2c[nH]c3c(N/N=C/c4ccncc4)ncnc23)c1	1.61

Field inhibition (Tyrosine-protein kinase FRK (Homo sapiens)), entry `COc1ccc(-c2cc3c(N)ncnc3o2)cc1` : 0.49

Field inhibition (Tyrosine-protein kinase FRK (Homo sapiens)), entry `Clc1ccc(-c2nn3ncccc3c2-c2ccnc(Nc3ccccc3)n2)cc1` : 0.95

Field inhibition (Tyrosine-protein kinase FRK (Homo sapiens)), entry `CS(=O)(=O)CCNCc1ccc(-c2ccc3ncnc(Nc4ccc(OCc5ccccc5)c(C(F)(F)F)c4)c3c2)o1` : 3.35

Field inhibition (Tyrosine-protein kinase FRK (Homo sapiens)), entry `Cc1cccc2c1NC(=O)/C2=N\Nc1ccc(S(N)(=O)=O)cc1` : 1.71

---

molecular target: NT-3 growth factor receptor (Homo sapiens) (UniProt Q16288); conditions: at 0.1 µM;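 note: mean percent inhibition of TRKC, reported within the GSK PKIS dataset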
Sequence (Q16288 32-839 limits assumed): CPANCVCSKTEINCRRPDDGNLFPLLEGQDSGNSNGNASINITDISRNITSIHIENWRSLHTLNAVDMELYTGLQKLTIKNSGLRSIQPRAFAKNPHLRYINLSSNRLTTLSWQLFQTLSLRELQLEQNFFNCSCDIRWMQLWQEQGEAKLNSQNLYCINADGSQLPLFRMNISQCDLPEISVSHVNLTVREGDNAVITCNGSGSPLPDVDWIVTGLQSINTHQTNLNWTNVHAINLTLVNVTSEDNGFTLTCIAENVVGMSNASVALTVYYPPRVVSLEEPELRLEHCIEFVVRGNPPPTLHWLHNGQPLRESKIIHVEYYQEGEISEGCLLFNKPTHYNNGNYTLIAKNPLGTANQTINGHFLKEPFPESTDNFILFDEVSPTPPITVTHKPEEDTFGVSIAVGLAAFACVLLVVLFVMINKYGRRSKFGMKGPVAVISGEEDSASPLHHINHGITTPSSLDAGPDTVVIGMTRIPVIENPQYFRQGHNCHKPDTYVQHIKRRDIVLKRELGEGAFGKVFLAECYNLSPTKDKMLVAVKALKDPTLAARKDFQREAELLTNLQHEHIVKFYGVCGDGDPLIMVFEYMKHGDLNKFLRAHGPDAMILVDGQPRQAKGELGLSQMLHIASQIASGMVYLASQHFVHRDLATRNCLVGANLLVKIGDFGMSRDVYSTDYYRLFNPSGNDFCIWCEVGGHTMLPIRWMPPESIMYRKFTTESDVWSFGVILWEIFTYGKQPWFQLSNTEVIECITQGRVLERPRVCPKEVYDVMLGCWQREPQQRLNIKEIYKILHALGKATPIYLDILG
propertyName: inhibition (%)
Write the answer as a number in %, unit excluded.

Fc1cccc(COc2ccc(Nc3ncnc4sc(-c5ccco5)cc34)cc2Cl)c1	3.74
Clc1ccc(-c2nn3ncccc3c2-c2ccnc(Nc3ccccc3)n2)cc1	1.69
COc1cccc(-n2ncc3c(N/N=C/c4ccc(F)cc4)ncnc32)c1	3.31
Cc1ccc(O)cc1Nc1ccnc2cc(-c3ccccn3)ccc12	3.76

We now examine a further compound.
GET /value?item= `CC(C)COC(=O)c1ccc2c(c1)/C(=C/Nc1ccc(S(N)(=O)=O)cc1)C(=O)N2` &field=inhibition returns 8.8

---

target: SRSF protein kinase 3 (Homo sapiens); details: at 0.1 µM;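 note: mean of replicate inhibition values against MSSK1 kinase, profiled within the GSK PKIS kinase inhibitor set screen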
The following compounds are shown together with reported inhibition values.
Write the answer as a number in %, unit excluded.

GET /value?item= `CN1CCC(n2cnc(-c3ccc(F)cc3)c2-c2ccnc(Nc3ccccc3)n2)CC1` &field=inhibition returns 0.1

GET /value?item= `Cc1ccc(O)cc1Nc1ccnc2cc(-c3ccccn3)ccc12` &field=inhibition returns 1.4

GET /value?item= `CCn1c(-c2nonc2N)nc2ccccc21` &field=inhibition returns 2.33

GET /value?item= CC1=C(C(=O)Nc2cc(Cl)c3[nH]ncc3c2)C(c2ccc(C(F)(F)F)cc2)CC(=O)N1 (stereo not given) &field=inhibition returns -1.32

GET /value?item= `[O-][S+]1CCN(Cc2ccc(-c3ccc4ncnc(Nc5ccc(OCc6cccc(F)c6)c(Cl)c5)c4c3)o2)CC1` &field=inhibition returns -2.3

GET /value?item= `CCCN1CCC(c2ccc(Nc3nc(Nc4cc(F)ccc4C(N)=O)c4cc[nH]c4n3)c(OC)c2)CC1` &field=inhibition returns 0.67

GET /value?item= `NS(=O)(=O)c1ccc(N/N=C2\C(=O)Nc3ccc4ncccc4c32)cc1` &field=inhibition returns -0.65

---

molecular target: Glycogen synthase kinase-3 alpha (Homo sapiens); conditions: at 0.1 µM;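 note: values are mean inhibition of GSK3A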
Entry flag: Yes if inhibition reaches 5%; No if it does not.

Reference set, count: 2
NS(=O)(=O)c1ccc(Nc2ncc(-c3ccccc3)o2)cc1	Yes
Cc1cccc2c1NC(=O)/C2=N\Nc1ccc(S(N)(=O)=O)cc1	No

Q: Check if inhibition >= 5% (inclusive). Item: `COc1cc2ncn(-c3cc(OCc4ccccc4C(F)(F)F)c(C(=O)N(C)C)s3)c2cc1OC`
Result: No

Q: Check if inhibition >= 5% (inclusive). Item: `Cc1ccc2c(-c3ccnc(Nc4ccccc4)n3)c(-c3ccc(F)cc3)nn2n1`
Result: Yes
